B1: library; numbered along this chain (parent)
chain: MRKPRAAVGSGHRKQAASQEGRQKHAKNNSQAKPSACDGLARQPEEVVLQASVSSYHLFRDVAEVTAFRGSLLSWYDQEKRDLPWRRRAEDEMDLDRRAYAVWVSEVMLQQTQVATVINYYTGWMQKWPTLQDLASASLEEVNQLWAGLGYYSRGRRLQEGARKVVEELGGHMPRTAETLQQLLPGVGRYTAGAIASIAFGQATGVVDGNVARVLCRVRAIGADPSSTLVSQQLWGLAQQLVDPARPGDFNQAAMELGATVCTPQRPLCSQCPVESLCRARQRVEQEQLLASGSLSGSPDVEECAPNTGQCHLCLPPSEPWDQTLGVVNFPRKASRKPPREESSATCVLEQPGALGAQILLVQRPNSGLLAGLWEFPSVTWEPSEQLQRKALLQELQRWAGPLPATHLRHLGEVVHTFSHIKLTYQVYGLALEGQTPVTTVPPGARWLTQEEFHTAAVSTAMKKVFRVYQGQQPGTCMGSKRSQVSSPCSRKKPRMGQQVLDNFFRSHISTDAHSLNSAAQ

variants of: B1; test: 8OG:A repair function score (normalized; synonymous = 0, nonsense = -1) (normalized log-likelihood score); higher = more repair activity (WT-like); settings: with 8OG:A DNA repair reporter (GFP) in HEK-293 MUTYH KO cells;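 note: cells sorted at 72 h after reporter transfection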
List of 8OG:A repair function score values.
OBSERVABLE: 8OG:A repair function score

>>> print(df.to_string())
    variant_description  endpoint_value
 0                S197N           -1.17
 1                 A41T          0.0139
 2                P174C          -0.583
 3                L169F         -0.0235
 4                L290E         -0.0564
 5                A400P          -0.723
 6                P320M         -0.0571
 7                G171C          -0.239
 8                H312Y         -0.0454
 9                P316F          -0.198
10                V438Q           0.187
11                P443R          -0.143
12                P383H          0.0207
13                K492W          0.0127
14                A115Y          -0.206
15                E178D       -0.000297
16                V438Y         -0.0793
17                P383W          -0.185
18                M173R           -1.15
19                Q202A         0.00201
20                L183F         -0.0771
21                Q110H         -0.0864
22                Q182N          -0.133
23                P244G          -0.385
24                Y100F          -0.679
25                 Y56C         -0.0129
26                 D82Q         -0.0442
27                A357M         -0.0956
28                Q363T          -0.255
29                F250Q          -0.831
30                 L95Y         -0.0972
31                R156S          -0.193
32                G148S          -0.286
33                V166H          -0.183
34                V427F            -1.1
35                P264H          -0.113
36                R157H         -0.0973
37                P494A          0.0124
38                N143D          -0.456
39                A371L            -0.5
40                Q286M         -0.0133
41                S490E         -0.0309
42                L369D          -0.723
43                S367Q          -0.113
44                G201C          -0.103
45                K164W         -0.0721

Reference for the values: the supplement of paper PMC11908140
